The reported measurements were obtained from patent US7622469B2.

Please respond with reported minimal inhibitory concentration (MIC) for every item in the list.
- Test system: MRSA 97-115
- Protocol description: Antibacterial activity test (MIC)
- Type: cell-based, methicillin-resistant Staphylococcus aureus
- Condition: Mueller-Hinton Broth, 37° C., 20 to 24 hours
Answers are plain numbers, in µg/mL.

// solved cases for minimal inhibitory concentration (MIC) follow
>>> recorded_value("CCCCCCCCCCNC1=NC(C)(C)N=C(NCc2ccc(OC)cc2)N1.O=C(O)C(=O)O")
0.8
>>> recorded_value("N=C(NCCCCCCNC(=N)NC(=N)Nc1ccc(Cl)cc1)NC(=N)Nc1ccc(Cl)cc1.O=C(O)[C@H](O)[C@@H](O)[C@H](O)[C@H](O)CO.O=C(O)[C@H](O)[C@@H](O)[C@H](O)[C@H](O)CO [Control drug, chlorhexidine gluconate, reference compound]")
3.1
>>> recorded_value("CCCCCCCCNC1=NC(C)(C)N(c2cnc3ccccc3c2)C(N)=N1.Cl.Cl")
1.6
>>> recorded_value("CCCCCCCCCCCC1N=C(N)NC(Nc2ccc(F)cc2F)=N1.Cl (racemic)")
1.6
>>> recorded_value("CC(=O)O.CCCCCCCCNC1=NC(C)(C)N=C(NCCCCCCCC)N1")
1.6

Return reported minimal inhibitory concentration (MIC) values for all items listed beneath this line.
1. CC(=O)O.CCCCCCCCCCCCNC1=NC(C)(C)N=C(NCc2ccco2)N1
2. CC(=O)O.CCCCCCCNC1=NC2(CCCC2)N=C(NCc2ccccc2)N1

Response line:
1: 1.6; 2: 1.6

###

- System: MRSA 97-115
- Protocol description: Bactericidal activity test (MBC, phenol coefficient measuring method)
- Assay type: cell-based, methicillin-resistant Staphylococcus aureus
- Condition: 5 min
Please respond with reported minimal bactericidal concentration (MBC) for every item in the list.
One number for each entry, in mg/L.

Return reported minimal bactericidal concentration (MBC) values for all items listed beneath this line.
1. CCCCCCCCCCNC1=NC(C)(C)N=C(NCc2ccc(OC)cc2)N1.CS(=O)(=O)O [38(2)]
2. CC(=O)O.CCCCCCCCNC1=NC(C)(C)N=C(NCCCCCC)N1 [compound 68]
3. CCCCCCCCCCNC1=NC(C)(C)N=C(NCc2ccccc2)N1.CS(=O)(=O)O [compound 2]
4. CCCCCCCCCCCCC1N=C(N)NC(NCCc2ccc(OC)cc2)=N1.Cl (racemic) [15(1)]
5. N=C(NCCCCCCNC(=N)NC(=N)Nc1ccc(Cl)cc1)NC(=N)Nc1ccc(Cl)cc1.O=C(O)[C@H](O)[C@@H](O)[C@H](O)[C@H](O)CO.O=C(O)[C@H](O)[C@@H](O)[C@H](O)[C@H](O)CO [Control drug, chlorhexidine gluconate, reference compound]

Response line:
1. 12.5
2. 6.3
3. 6.3
4. 6.3
5. 125

Return reported minimal bactericidal concentration (MBC) values for all items listed beneath this line.
1. CC(=O)O.CCCCCCCCNC1=NC(C)(C)N=C(NCC2CCCCC2)N1 [compound 65]
2. CCCCCCCCCC1N=C(N)N=C(N)N1c1ccc(C(C)(C)C)cc1.Cl (stereo not drawn) [compound 22]
3. Br.CCCCCCCCCNC1=NC(C)(C)N=C(NCc2ccccc2)N1 [compound 49]
4. CC(=O)O.CCCCCCCCCNC1=NC(C)(C)N=C(NCc2ccccc2)N1 [compound 48]

Response line:
1. 12.5
2. 12.5
3. 12.5
4. 6.3

###

- Test system: S. aureus 209PJC
- Protocol description: Antibacterial activity test (MIC)
- Format: cell-based
- Condition: Mueller-Hinton Broth, 37° C., 20 to 24 hours
Recorded endpoint: minimal inhibitory concentration (MIC) (µg/mL)
One number for each entry, in µg/mL.

// solved cases for minimal inhibitory concentration (MIC) follow
>>> recorded_value("CCCCCCCCCCCC1N=C(N)N=C(N)N1c1ccc(F)cc1F.Cl (racemic)")
0.8
>>> recorded_value("CC(=O)O.CCCCCCCCCCCCNC1=NC(C)(C)N=C(NCc2ccco2)N1")
0.8
>>> recorded_value("CC(=O)O.CCCCCCCCNC1=NCN=C(NCCCCCCCC)N1")
0.8
>>> recorded_value("CCCCCCCCCCNC1=NC(C)(C)N=C(NCc2ccccc2)N1.CS(=O)(=O)O")
0.4
>>> recorded_value("CCCCCCCCCC1N=C(N)NC(Nc2ccc(C(C)(C)C)cc2)=N1.Cl (stereo not drawn)")
0.8
>>> recorded_value("CCCCCCCCC1N=C(N)N=C(N)N1c1ccc(OC(F)(F)F)cc1.Cl (stereo not drawn)")
3.1
>>> recorded_value("CC(=O)O.CCCCCCCCCNC1=NC(C)(C)N=C(NCCc2ccccc2)N1")
0.4
>>> recorded_value("CCCCCCCCCCCNC1=NC(C)(C)N=C(NCc2ccccc2)N1.O=C(O)C(=O)O")
0.4

Here's the next entry for you.
Prompt line: Please report the recorded minimal inhibitory concentration (MIC) for CCCCCCCCC1N=C(N)NC(NCc2ccc(C(F)(F)F)cc2)=N1.Cl (stereo not drawn) .
Response line: 0.8

###

- Tested on: MRSA KM 97-53
- Protocol description: Bactericidal activity test (MBC, phenol coefficient measuring method)
- Type: cell-based, methicillin-resistant Staphylococcus aureus
- Condition: 5 min
- Source text: As a test bacterium, the same bacteria species as those of the antibacterial activity test were used; as a medium to be used, a SCD medium (manufactured by Eiken Chemical Co., Ltd.) was used for pre-culture medium; and a heart infusion bouillon medium (manufactured by Eiken Chemical Co., Ltd.) was used as a medium for growing a live bacterium in a test solution after bactericidal treatment. […]
Recorded endpoint: minimal bactericidal concentration (MBC) (µg/mL)
One number for each entry, in µg/mL.

>>> recorded_value("CC(=O)O.CCCCCCCCCNC1=NC(C)(C)N=C(NCc2ccccc2)N1")
25
>>> recorded_value("CC(=O)O.CCCCCCCCNC1=NC(C)(C)N=C(NCc2ccc(C)cc2)N1")
25
>>> recorded_value("N=C(NCCCCCCNC(=N)NC(=N)Nc1ccc(Cl)cc1)NC(=N)Nc1ccc(Cl)cc1.O=C(O)[C@H](O)[C@@H](O)[C@H](O)[C@H](O)CO.O=C(O)[C@H](O)[C@@H](O)[C@H](O)[C@H](O)CO [Control drug, chlorhexidine gluconate, reference compound]")
250

Here's the next entry for you.
Prompt line: Please state recorded minimal bactericidal concentration (MBC) (tested on MRSA KM 97-53) of `CC(=O)O.CCCCCCCCNC1=NC(C)(C)N=C(NCCCCCC)N1`
Response line: 25

###

- System: MRSA KM 97-53
- Protocol description: Bactericidal activity test (MBC, phenol coefficient measuring method)
- Assay type: cell-based, methicillin-resistant Staphylococcus aureus
- Condition: 3 min
Please respond with reported minimal bactericidal concentration (MBC) for every item in the list.
Answers are plain numbers, in µg/mL.

// solved cases for minimal bactericidal concentration (MBC) follow
>>> recorded_value("CC(=O)O.CCCCCCCCNC1=NC(C)(C)N=C(NCCCCCC)N1 [compound 68]")
25
>>> recorded_value("CC(=O)O.CCCCCCCCNC1=NC(C)(C)N=C(NCc2ccc(C)cc2)N1 [compound 58]")
50

Return reported minimal bactericidal concentration (MBC) values for all items listed beneath this line.
1. N=C(NCCCCCCNC(=N)NC(=N)Nc1ccc(Cl)cc1)NC(=N)Nc1ccc(Cl)cc1.O=C(O)[C@H](O)[C@@H](O)[C@H](O)[C@H](O)CO.O=C(O)[C@H](O)[C@@H](O)[C@H](O)[C@H](O)CO [Control drug, chlorhexidine gluconate, reference compound]
2. CC(=O)O.CCCCCCCCCNC1=NC(C)(C)N=C(NCc2ccccc2)N1 [compound 48]

Response line:
1. 250
2. 25

###

Please respond with reported minimal bactericidal concentration (MBC) for every item in the list.
- Tested on: MRSA 97-115
- Protocol description: Bactericidal activity test (MBC, phenol coefficient measuring method)
- Format: cell-based, methicillin-resistant Staphylococcus aureus
- Condition: 5 min
Please report the result as a number followed by the unit.

>>> recorded_value("CC(=O)O.CCCCCCCNC1=NC(C)(C)N=C(NCCCCCCC)N1")
"12.5 µg/mL"

Return reported minimal bactericidal concentration (MBC) values for all items listed beneath this line.
1. CCCCCCCCCCNC1=NC(C)(C)N=C(NCCc2ccc(OC)cc2)N1.Cl
2. CCCCCCCCCCC1N=C(N)N=C(N)N1c1ccc(F)c(F)c1F.Cl (stereo not drawn)
3. CC(=O)O.CCCCCCCCCNC1=NC(C)(C)N=C(NCCc2ccccc2)N1
4. CC(=O)O.CCCCCCCCNC1=NC(C)(C)N=C(Nc2cnc3ccccc3c2)N1

Response line:
6.3 µg/mL
6.3 µg/mL
6.3 µg/mL
25 µg/mL

Return reported minimal bactericidal concentration (MBC) values for all items listed beneath this line.
1. CCCCCCCCCCCC1N=C(N)NC(NCc2ccccc2)=N1.Cl (racemic)
2. CCCCCCCCNC1=NC(C)(C)N=C(NCc2ccc(C)cc2)N1
3. CCCCCCCCCCCCCCNC1=NC(C)(C)N=C(N)N1.Cl
4. CC(=O)O.CCCCCCCCNC1=NC(C)(C)N=C(NCc2ccc(C)cc2)N1

Response line:
1: 12.5 µg/mL; 2: 12.5 µg/mL; 3: 12.5 µg/mL; 4: 12.5 µg/mL
